Listing of recorded EC50 by entry.
Target: Claudin18.2-His protein (human)
Test: indirect ELISA on coated Claudin18.2-His
Numbers only; they are read as µg/mL.

1) 231C11E9 (antibody, V domains shown) VH: EVMLVESGGGLVKPGGSLKLSCAASGFTFNNYVMCWVRQTPEKRLEWVATISSGNFYTYYPDSVKGRFTISRDNAKNTLYLQMSSLRSEDTAIYYCASLGRGNALDNWGQGTSVTVSS VL: DIVMTQSPASLTVTAKEKVTMSCRSSQSLLNSGNQKNYLTWYQQKPGQPPKLLIYWASTRESGVPDRFTGSGSGTDFTLTISSVQAEDLAVYYCQNDYSYPFTFGSGTKLEIK | 0.0413

# ---- query binder ----
Notebook: 182D10F1 (antibody, V domains shown) VH: QAYLQQSGAELVRSGASVKMSCKASGYTFSSYNMHWVKQTPGQGLEWIGYIYPGNGGTNYNQKFKGKATLTADTSSSTAYMQISSLTSEDSAVYFCLTGRGFTYWGQGTLVTVSA VL: DIVMTQSPSSLTVTAGEKVTMNCKSSQSLFNSGNQKNYLTWYQQKPGQPPKLLIYRASTRESGVPDRFTGSGSGTDFTLTISSVQAEDLAVYYCQNDYSYPLTFGVGTKLELK , EC50 read as 0.0236

The values you see were collected from patent US20220073643A1.
